Molecular target: Chromo domain-containing protein 1 (Saccharomyces cerevisiae (strain ATCC 204508 / S288c) (Baker's yeast)) (UniProt P32657)
Sequence (P32657 whole entry, the tested form may be a part): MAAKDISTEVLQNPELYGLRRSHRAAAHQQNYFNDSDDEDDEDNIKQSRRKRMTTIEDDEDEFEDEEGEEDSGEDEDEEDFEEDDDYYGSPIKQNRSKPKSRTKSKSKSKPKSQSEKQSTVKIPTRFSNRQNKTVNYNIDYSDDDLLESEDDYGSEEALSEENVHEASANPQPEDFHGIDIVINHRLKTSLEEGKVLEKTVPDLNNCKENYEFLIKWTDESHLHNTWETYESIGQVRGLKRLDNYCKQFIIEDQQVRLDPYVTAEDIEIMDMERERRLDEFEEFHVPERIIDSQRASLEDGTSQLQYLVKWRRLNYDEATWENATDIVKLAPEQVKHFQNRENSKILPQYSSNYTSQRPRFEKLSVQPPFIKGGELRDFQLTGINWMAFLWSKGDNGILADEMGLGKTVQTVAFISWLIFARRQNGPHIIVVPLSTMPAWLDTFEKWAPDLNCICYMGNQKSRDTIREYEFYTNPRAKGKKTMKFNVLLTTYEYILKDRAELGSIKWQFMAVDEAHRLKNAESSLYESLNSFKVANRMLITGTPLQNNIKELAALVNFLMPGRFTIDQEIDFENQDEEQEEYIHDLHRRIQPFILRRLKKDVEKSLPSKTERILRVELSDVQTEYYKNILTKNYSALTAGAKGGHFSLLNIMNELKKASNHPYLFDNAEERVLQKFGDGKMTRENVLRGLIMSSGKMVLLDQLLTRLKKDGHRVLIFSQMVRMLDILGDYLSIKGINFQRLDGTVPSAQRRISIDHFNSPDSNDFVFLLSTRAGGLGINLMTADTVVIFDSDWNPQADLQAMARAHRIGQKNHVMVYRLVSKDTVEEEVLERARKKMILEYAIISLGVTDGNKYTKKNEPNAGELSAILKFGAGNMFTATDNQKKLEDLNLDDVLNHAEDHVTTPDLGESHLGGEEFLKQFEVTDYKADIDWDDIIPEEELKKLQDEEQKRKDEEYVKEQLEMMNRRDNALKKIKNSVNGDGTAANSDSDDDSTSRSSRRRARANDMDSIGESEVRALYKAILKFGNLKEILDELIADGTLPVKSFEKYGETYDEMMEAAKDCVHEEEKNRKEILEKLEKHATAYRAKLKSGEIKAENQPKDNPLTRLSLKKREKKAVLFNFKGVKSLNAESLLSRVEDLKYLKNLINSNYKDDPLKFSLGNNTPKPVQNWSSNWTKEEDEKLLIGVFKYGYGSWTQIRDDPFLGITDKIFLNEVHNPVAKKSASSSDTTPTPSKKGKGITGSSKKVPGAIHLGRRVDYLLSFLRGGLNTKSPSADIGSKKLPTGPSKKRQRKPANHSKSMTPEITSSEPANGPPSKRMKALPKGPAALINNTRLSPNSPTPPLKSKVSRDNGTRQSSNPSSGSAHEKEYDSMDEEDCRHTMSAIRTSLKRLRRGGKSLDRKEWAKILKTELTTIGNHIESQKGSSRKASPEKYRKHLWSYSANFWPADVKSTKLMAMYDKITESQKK
Experiment: ScCHD-1 Enzyme Inhibition Assay; note: in the data most compounds retested in dose-response had high values
Assay type: functional
Design: scale not given: direction of the effect not stated beside the values
Conditions: 30 µM
ASSAY_METRIC: Percent Effect (%)
Answers are plain numbers, in %.

CNC(=O)[C@@H]1C[C@H]2CN(C(=O)c3ccco3)C[C@H]2N1C    -5.57
COc1cccc(CCNS(=O)(=O)c2ccc(NC(C)=O)cc2)c1    -4.22
CN(Cc1ccccn1)C(=O)[C@]12COC[C@H]1CN(Cc1cnn(C)c1)C2    -8.12
CS(=O)(=O)NC[C@@H]1OC[C@H]2CN(C(=O)c3ccc[nH]3)CC[C@H]21    -2.84
O=C(c1cccc(S(=O)(=O)NCCCc2ncc[nH]2)c1)N1CCOCC1    -3.79

Please state, for each entry, its recorded Percent Effect.
1. Cc1cccc(C)c1OCCNC(=O)NC(C)c1nncn1C (stereo not drawn)
2. Cc1cnn(CC2CCCN2C(=O)CCc2nc3ccccc3[nH]2)c1 (stereo not drawn)
3. CN(Cc1cccnc1)C1CC2(CCN(c3ccccn3)CC2)C1
4. CN(Cc1ccc(OC(F)F)cc1)C(=O)CS(=O)(=O)c1ccc(Cl)cc1
5. Cc1ccc([C@]2(O)CC[C@H]3CN(Cc4cccc(Cl)c4Cl)C[C@H]32)nc1

Response:
[-21.4, -1.08, -5.79, -1.75, -15.7]

Please state, for each entry, its recorded Percent Effect.
1. OCC1CCCN1c1cc(NCCc2c[nH]c3ccccc23)ncn1 (stereo not drawn)
2. O=C(Cc1csc(-c2ccco2)n1)N1CCN(c2cnccn2)CC1
3. COc1ccc(F)cc1C(C)NC(=O)Nc1nnc(C)s1 (stereo not drawn)
4. O=C(Nc1nccs1)N(CCO)Cc1ccsc1
5. CN(Cc1ccccc1)C1COC2(CCN(Cc3nccs3)CC2)C1 (stereo not drawn)
6. c1ccc(-c2nc(CN3CCCC(Cn4cncn4)C3)no2)cc1 (stereo not drawn)
7. CN(Cc1ccsc1)C(=O)CS(=O)(=O)Cc1ccc(Cl)c(Cl)c1

Response:
1: -5.88; 2: -30.1; 3: 3.4; 4: -13.6; 5: -9.89; 6: -9.44; 7: -13.1

Please state, for each entry, its recorded Percent Effect.
1. Cc1nc(CN(C)C2CCCN(c3cccnn3)C2)no1 (stereo not drawn)
2. COC(=O)N1CCCC(C(=O)NCc2cc3cccc(OC)c3o2)C1 (stereo not drawn)
3. CC(NC(=O)N1CCC(n2cncn2)CC1)c1ccc(F)cc1F (stereo not drawn)

Response:
[-5.56, -3.44, -5.72]

====

Biological target: Proteasome subunit beta (Trypanosoma cruzi)
Assay: Trypanosoma cruzi proteasome chymotrypsin-like activity (TcProtChymo) assay. Note: in the data most compounds retested in dose-response had high values.
Format: functional
Parameters: scale not given: direction of the effect not stated beside the values
Details: 9.37 µM
Decision: Percent Effect beneath 5% gives condition met; Percent Effect meeting or exceeding 5% gives condition not met.

Cc1nc(CN2CCc3nn(C(C)C)c(=O)cc3C2)oc1C    condition not met
CNc1nc2c(s1)C(c1cccc(F)c1F)CC(=O)N2 (stereo unspecified)    condition not met
O=C(c1ccc(N2CCCC2)nn1)N1CCCC(n2cccn2)C1 (stereo unspecified)    condition not met

Prompt: Does Cc1cc(-c2cnc(NC3CC3)nc2-c2ccc(C)o2)on1 have Percent Effect strictly under 5%?
Response: condition met

Prompt: Does CC(C)(C)c1ccn(C2(C(=O)O)CCN(c3nccc(N)n3)CC2)n1 have Percent Effect strictly under 5%?
Response: condition not met

Prompt: Does COC(=O)C(NC(=O)C(C)C)c1cc(F)ccc1F (stereo unspecified) have Percent Effect strictly under 5%?
Response: condition met

====

Test system: Trypanosoma cruzi
Experiment: Trypanosoma cruzi phosphomannomutase and mannose-1-phosphate guanylyltransferase assay
Type: functional
Set-up: scale not given: direction of the effect not stated beside the values
Conditions: 10 µM
Give Percent Effect for every item shown.
Give bare numbers, in %.

Below: 10 compounds and their reported Percent Effect.
CC(C)(CNC(=O)OC(C)(C)C)NC(=O)C1CC(=O)N(C2CC2)C1 (stereo not drawn)    -8.11
CN(CCCOc1ccc(F)cc1)Cc1nc2c(cnn2C)c(=O)[nH]1    4.39
Cc1cc(C)n(CC2CCCN2C(=O)c2cccc3[nH]ncc23)n1 (stereo not drawn)    7.89
CC(O)CNCc1ccc(OCc2ccc3c(c2)OCCO3)cc1 (stereo not drawn)    -3.6
Cn1cnnc1C1CCCN(C(=O)Cc2ccc3c(c2)OCCO3)C1 (stereo not drawn)    3.82
CC(C)c1nnc2n1CCN(C(=O)c1ccc(-n3cnnc3)cc1)C2    8.13
Cc1ccc(CN2CCC3(CC2)CC(c2cccnc2)CO3)s1 (stereo not drawn)    0
CCc1nc(C)c([C@H]2CN(C)C[C@@H]2C(=O)Nc2ccc(OC)cc2)[nH]1    1.16
Cc1nn(C(C)C)c(C)c1NC(=O)c1ccncc1    5.56
Cc1nc(CCNC(=O)C2CC(=O)N(C(C)(C)C)C2)sc1C (stereo not drawn)    -1.19

Please state, for each entry, its recorded Percent Effect.
1. CCCN(C)C(=O)c1ccc2c(c1)[nH]c(=O)n2CCOCC
2. CN1CCN(C(=O)NC2CC2)Cc2cccnc21
3. CCCNC(=O)CN1CCN(Cc2csc(C(C)(C)C)n2)CC1
4. Cn1cc(CN2C[C@@H]3COC[C@]3(C(=O)NCc3ccccn3)C2)cn1
5. CN(CCO)C[C@@H]1CN(C(=O)c2c(F)cccc2Cl)C[C@@H]1CO
6. CN(C)C(=O)C1(CCCc2ccncc2)CCCN1 (stereo not drawn)
7. CC(C(=O)N1CCCN(Cc2ccc(C#N)cc2)CC1)n1ccnc1 (stereo not drawn)

Response:
1. 8.11
2. -1.35
3. -4.63
4. 0.772
5. -2.06
6. 0
7. -6.01

====

Molecular target: AMP-activated protein kinase, AMPK (Homo sapiens) (UniProt P54646+O43741+P54619+Q9UGJ0+Q9Y478+Q13131+Q9UGI9)
Assay: AMP-dependent Kinase enzyme assay. An in vitro enzyme assay that detects ADP turnover that is directly proportional to AMPK activity. This uses naive AMPK that is activated during the assay with MK-8722
Type: functional
Set-up: scale not given: direction of the effect not stated beside the values
Settings: 30 µM
Give Percent Effect for every item shown.
Record the result as number plus unit.

Below: 5 compounds and their reported Percent Effect.
O=C(CN(Cc1ccccc1)CC1CCOCC1)NC(=O)NC1CC1    0.0982%
CN1CCc2cc(C(CNS(=O)(=O)c3cccs3)N3CCCC3)ccc21 (stereo unspecified)    7.05%
Cc1ccoc1C(=O)N1CC[C@H]2OCC[C@@]2(COCc2ccncc2)C1    3.21%
Cc1nc(CC(=O)N2CCC[C@H]2c2nc(C(C)C)no2)cs1    0.72%
CCn1c(CN(C)C)nnc1C1CCN(Cc2ccccc2)CC1    2.85%

Form: compound = CN(Cc1ncc[nH]1)CC(c1cccs1)N1CCOCC1 (stereo unspecified) ; Percent Effect = -12.7%

====

Give Percent Effect for every item shown.
Molecular target: AMP-activated protein kinase, AMPK (Homo sapiens) (UniProt P54646+O43741+P54619+Q9UGJ0+Q9Y478+Q13131+Q9UGI9)
Experiment: AMP-dependent Kinase enzyme assay. An in vitro enzyme assay that detects ADP turnover that is directly proportional to AMPK activity. This uses naive AMPK that is activated during the assay with MK-8722
Assay type: functional
Design: scale not given: direction of the effect not stated beside the values
Conditions: 30 µM
One number for each entry, in %.

COc1ccc(CS(=O)(=O)CC(=O)NCc2ccccc2F)cc1F    5.57
CCn1cc(CN2CCCN(C(=O)CCCn3cncn3)CC2)cn1    7.06
CCc1nc(CN2CCCN(C(=O)C(C)n3ccnc3)CC2)cs1 (centres undefined)    3.99
CN(C)c1cc2c(nn1)CCN(C(=O)C1Cc3ccccc3S1)C2 (centres undefined)    -4.45
Cn1cccc1CN1CCC2(CCCN(C(=O)c3cnccn3)C2)C1 (centres undefined)    -0.756
Fc1ccc(CNCC2OCCc3cn(CC4CC4)nc32)cc1 (centres undefined)    12.4
Cc1ccc(CC(=O)N2CSCC2C(=O)N(C)Cc2ccco2)o1 (centres undefined)    17.7
O=C(c1ccccn1)N1CCCC(c2nccn2CC2CCC2)C1 (centres undefined)    -15.1
CC(C)COC(C)C(=O)NCc1ccc(OC(C)C)nc1 (centres undefined)    -0.374
N#Cc1ccccc1CN1C[C@@H]2CC[C@H](C1)N(CC1CC1)C2=O    -0.476

Please state, for each entry, its recorded Percent Effect.
1. Cc1ccc(CN2CC[C@H]3OCC[C@@H](C(=O)NC4CC4)[C@@H]3C2)o1
2. CCCS(=O)(=O)NCc1cccnc1OCC
3. CCn1cnnc1C1CCN(C(=O)c2ccccc2OC)CC1
4. CCCNC(=O)CN1CCN(Cc2csc(C(C)(C)C)n2)CC1
5. Cn1c(CN2CCOC(c3nc(C(C)(C)C)n[nH]3)C2)nnc1C1CC1 (centres undefined)

Response:
[-20.2, -1.14, 12.8, -2.27, -4.74]
